// Mutagenic potency, Revertants/µg ± S.E., TA98 lookup, one value per entry
Test system: Salmonella TA98
Assay: Salmonella plate-incorporation mutagenicity assay, strain TA98, with S9 mix
Type: cell-based
Details: plate-incorporation, +S9
experimentalReadout: Mutagenic potency, Revertants/µg ± S.E., TA98 (rev/µg)

{"compound": "c1ccc2c(c1)ccc1ccc3sccc3c12 [P[3,4-b]T, Phenanthro[3,4,-b]thiophene]", "unitOfMeasurement": "rev/µg", "observedResult": 0.2}
{"compound": "O[C@@H]1C=Cc2c(ccc3ccc4ccsc4c23)[C@H]1O (racemic) [P[4,3-b]T 8,9-diol]", "unitOfMeasurement": "rev/µg", "observedResult": 11.0}
{"compound": "O[C@@H]1c2ccccc2-c2c(ccc3sccc23)[C@H]1O (racemic) [P[3,4-b]T 6,7-diol]", "unitOfMeasurement": "rev/µg", "observedResult": 1.4}
{"compound": "O[C@@H]1c2ccccc2-c2c(ccc3ccsc23)[C@H]1O (racemic) [P[4,3-b]T 6,7-diol]", "unitOfMeasurement": "rev/µg", "observedResult": "−0.2"}
{"compound": "c1ccc2c(c1)ccc1ccc3ccsc3c12 [P[4,3-b]T, Phenanthro[4,3-b]thiophene]", "unitOfMeasurement": "rev/µg", "observedResult": 13.7}
{"compound": "O[C@@H]1c2ccccc2-c2c(ccc3ccccc23)[C@H]1O (racemic) [B[c]P 5,6-diol]", "unitOfMeasurement": "rev/µg", "observedResult": "−0.1"}
{"compound": "O[C@@H]1C=Cc2c(ccc3ccc4ccccc4c23)[C@H]1O (racemic) [B[c]P 3,4-diol]", "unitOfMeasurement": "rev/µg", "observedResult": 11.1}
{"compound": "c1ccc2c(c1)ccc1ccc3ccccc3c12 [B[c]P, Benzo[c]phenanthrene]", "unitOfMeasurement": "rev/µg", "observedResult": 1.2}
{"compound": "O[C@@H]1C=Cc2c(ccc3ccc4sccc4c23)[C@H]1O (racemic) [P[3,4-b]T 8,9-diol]", "unitOfMeasurement": "rev/µg", "observedResult": 5.6}
